# target-system: human GPR39 receptor (Homo sapiens, UniProt O43194)
# Construct: PC3 Cells, Expressing the Endogenous Human GPR39 Receptor; endogenous in cells
# Sequence (O43194 whole entry): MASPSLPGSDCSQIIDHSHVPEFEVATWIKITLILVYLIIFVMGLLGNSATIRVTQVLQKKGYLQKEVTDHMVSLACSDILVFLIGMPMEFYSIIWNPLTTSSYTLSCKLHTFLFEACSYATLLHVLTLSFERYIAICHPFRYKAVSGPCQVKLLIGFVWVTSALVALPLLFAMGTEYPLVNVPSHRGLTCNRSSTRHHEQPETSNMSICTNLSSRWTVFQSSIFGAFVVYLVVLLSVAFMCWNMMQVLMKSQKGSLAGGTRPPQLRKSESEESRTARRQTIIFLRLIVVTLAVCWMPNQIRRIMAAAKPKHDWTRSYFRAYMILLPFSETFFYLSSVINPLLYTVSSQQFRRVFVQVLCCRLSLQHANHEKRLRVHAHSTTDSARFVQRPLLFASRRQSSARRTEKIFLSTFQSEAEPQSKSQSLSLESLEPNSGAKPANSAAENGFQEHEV
# protocol-text: Intracellular calcium response (FLIPR, Calcium-6) in PC3 cells, antagonism of agonist C3 (TC-G 1008) at EC90
# condition-notes: functional pKi (-Log10Ki) by modified Cheng-Prusoff from IC50; PC3 cells endogenously expressing human GPR39; 30 μM ZnCl2; agonist C3 (TC-G 1008) at EC90 1.5 μM; read-out: fpKi activity
pKi: −log10 of the molar value.
test-readout: pKi

- compound: "CC1CN(C(=O)c2ccc(NC(=O)C3CC3)cc2N2CCCC2)CC(C)S1(=O)=O (stereo not shown)"
  test-readout: "pKi"
  reported: "< 5.20"
- compound: "Cc1nnc(-c2ccc(C(=O)N3CCC(C)CC3)c(-c3nc(C(F)(F)F)cs3)c2)[nH]1"
  test-readout: "pKi"
  reported: "≥ 7.30"
- compound: "Cc1nnc(-c2ccc(C(=O)N3CCC(C)(F)CC3)c(-c3cccc(C4CC4)n3)c2)[nH]1"
  test-readout: "pKi"
  reported: "≥ 7.30"
- compound: "Cc1nnc(-c2ccc(C(=O)N3CCC(C)CC3)c(-c3cccc(C4CC4)n3)c2)[nH]1"
  test-readout: "pKi"
  reported: "≥ 7.30"

The measurements presented in this section are drawn from patent US20250333405A1.
